Experimental protocol: Oral bioavailability in male ICR mouse at 3 mg/kg measured upto 24 hrs by LC-MS/MS analysis
Format: ADME, organism-based
Experimental conditions: in vivo
Outcome measure: bioavailability

Compound	Endpoint result
CC(=O)N1CCc2c(c(N3CCCc4cc(-c5cnn(C)c5)c(C(F)F)cc43)nn2[C@H]2CC[C@H](CN3CCN(c4ccc5c(c4)C(=O)N(C4CCC(=O)NC4=O)C5=O)CC3)CC2)C1 (stereo partly specified)	50%

====

Experimental protocol: AUC in male ICR mouse at 3 mg/kg, po measured upto 24 hrs by LC-MS/MS analysis
Assay type: ADME, organism-based
Experimental conditions: in vivo

Compound	AUC at 24 h
CC(=O)N1CCc2c(c(N3CCCc4cc(-c5cnn(C)c5)c(C(F)F)cc43)nn2[C@H]2CC[C@H](CN3CCN(c4ccc5c(c4)C(=O)N(C4CCC(=O)NC4=O)C5=O)CC3)CC2)C1 (stereo partly specified)	15500 ng·h/mL

====

System tested: Protein cereblon/CREB-binding protein (Homo sapiens, UniProt Q92793+Q96SW2)
Sequence (Q92793 whole entry): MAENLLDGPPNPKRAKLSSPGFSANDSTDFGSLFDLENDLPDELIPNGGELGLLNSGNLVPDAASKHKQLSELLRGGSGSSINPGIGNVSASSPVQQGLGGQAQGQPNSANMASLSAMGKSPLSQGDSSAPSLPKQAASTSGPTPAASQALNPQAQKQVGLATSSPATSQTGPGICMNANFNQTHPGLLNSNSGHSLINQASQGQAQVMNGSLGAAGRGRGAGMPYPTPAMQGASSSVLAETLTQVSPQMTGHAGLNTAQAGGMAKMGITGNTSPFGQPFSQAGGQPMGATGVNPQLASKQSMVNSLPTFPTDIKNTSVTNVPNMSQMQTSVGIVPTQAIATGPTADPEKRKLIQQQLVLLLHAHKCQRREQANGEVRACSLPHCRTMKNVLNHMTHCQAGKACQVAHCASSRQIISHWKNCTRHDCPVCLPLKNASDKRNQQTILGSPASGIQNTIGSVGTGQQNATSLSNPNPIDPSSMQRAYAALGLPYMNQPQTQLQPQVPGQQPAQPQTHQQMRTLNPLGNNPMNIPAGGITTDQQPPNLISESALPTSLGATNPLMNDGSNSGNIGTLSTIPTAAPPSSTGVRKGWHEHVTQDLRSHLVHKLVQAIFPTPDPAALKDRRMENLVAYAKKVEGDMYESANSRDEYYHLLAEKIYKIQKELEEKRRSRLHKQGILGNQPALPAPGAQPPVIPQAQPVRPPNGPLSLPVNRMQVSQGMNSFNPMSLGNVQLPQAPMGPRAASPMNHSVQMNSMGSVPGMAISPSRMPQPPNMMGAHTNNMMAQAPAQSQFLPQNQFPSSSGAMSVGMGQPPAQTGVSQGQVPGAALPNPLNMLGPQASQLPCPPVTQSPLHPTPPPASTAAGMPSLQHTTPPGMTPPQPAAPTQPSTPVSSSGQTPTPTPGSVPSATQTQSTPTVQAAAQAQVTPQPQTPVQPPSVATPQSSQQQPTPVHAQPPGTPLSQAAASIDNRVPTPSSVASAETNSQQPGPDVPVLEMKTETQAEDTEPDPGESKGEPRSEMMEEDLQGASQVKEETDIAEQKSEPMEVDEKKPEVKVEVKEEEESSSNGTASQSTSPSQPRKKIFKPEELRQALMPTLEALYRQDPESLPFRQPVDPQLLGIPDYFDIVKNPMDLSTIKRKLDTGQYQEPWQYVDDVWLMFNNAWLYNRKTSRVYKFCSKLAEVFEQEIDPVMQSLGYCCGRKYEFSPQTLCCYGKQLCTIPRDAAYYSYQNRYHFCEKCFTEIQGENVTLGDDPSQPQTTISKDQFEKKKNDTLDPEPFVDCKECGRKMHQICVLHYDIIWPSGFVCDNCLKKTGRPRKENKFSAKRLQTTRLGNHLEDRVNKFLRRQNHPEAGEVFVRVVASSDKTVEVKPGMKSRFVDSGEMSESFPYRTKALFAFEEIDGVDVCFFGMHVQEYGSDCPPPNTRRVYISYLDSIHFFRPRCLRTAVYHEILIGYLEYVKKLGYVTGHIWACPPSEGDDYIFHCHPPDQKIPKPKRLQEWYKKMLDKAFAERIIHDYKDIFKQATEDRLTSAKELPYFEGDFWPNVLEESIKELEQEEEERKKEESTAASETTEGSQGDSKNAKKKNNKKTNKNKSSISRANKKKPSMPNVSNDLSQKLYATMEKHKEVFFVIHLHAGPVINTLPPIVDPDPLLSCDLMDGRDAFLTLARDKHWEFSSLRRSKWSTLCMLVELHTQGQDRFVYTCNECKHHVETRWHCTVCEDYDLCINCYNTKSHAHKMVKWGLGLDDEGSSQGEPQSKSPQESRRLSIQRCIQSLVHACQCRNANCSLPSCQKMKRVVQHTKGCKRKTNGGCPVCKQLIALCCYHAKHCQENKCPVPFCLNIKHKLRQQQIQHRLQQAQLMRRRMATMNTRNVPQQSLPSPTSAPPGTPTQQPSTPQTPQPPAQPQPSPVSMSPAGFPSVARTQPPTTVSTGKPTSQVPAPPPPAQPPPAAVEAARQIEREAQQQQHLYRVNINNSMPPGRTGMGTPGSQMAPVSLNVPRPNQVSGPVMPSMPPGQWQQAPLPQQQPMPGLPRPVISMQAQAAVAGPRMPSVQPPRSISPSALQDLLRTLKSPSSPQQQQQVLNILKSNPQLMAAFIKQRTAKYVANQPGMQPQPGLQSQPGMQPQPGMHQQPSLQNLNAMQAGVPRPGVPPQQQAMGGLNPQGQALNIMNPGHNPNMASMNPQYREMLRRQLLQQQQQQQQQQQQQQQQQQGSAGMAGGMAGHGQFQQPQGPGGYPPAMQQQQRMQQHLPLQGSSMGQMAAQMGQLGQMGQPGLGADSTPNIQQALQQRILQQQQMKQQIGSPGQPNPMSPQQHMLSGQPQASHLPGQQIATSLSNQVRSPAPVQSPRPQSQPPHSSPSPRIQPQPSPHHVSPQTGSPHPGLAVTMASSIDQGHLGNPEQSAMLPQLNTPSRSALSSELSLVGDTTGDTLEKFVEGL
Sequence (Q96SW2 whole entry): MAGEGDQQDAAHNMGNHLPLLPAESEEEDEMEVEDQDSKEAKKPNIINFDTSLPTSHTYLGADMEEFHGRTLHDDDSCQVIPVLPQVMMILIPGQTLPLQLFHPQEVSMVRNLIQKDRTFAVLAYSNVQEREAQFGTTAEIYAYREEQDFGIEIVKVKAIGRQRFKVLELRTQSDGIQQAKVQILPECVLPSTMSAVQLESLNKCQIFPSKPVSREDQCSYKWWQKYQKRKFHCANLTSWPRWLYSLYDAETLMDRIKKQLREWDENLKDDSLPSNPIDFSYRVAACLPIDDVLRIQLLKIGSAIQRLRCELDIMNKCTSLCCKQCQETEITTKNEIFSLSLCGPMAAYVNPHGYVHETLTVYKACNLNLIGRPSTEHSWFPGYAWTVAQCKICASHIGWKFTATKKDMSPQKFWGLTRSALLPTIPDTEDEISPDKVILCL
Experimental protocol: PROTAC activity at CBP/CRBN in human VCaP cells assessed as protein degradation incubated for 4 hrs by Western blot analysis
Format: cell-based
Outcome measure: DC50 (nM)

Compound	Endpoint result
CC(=O)N1CCc2c(c(N3CCCc4cc(-c5cnn(C)c5)c(C(F)F)cc43)nn2[C@H]2CC[C@H](CN3CCN(c4cc5c(cc4F)C(=O)N(C4CCC(=O)NC4=O)C5=O)CC3)CC2)C1 (stereo not given in full)	1.2
CC(=O)N1CCc2c(c(N3CCCc4cc(-c5cnn(C)c5)c(C(F)F)cc43)nn2C2CCN(C3CCN(c4ccc5c(c4)C(=O)N(C4CCC(=O)NC4=O)C5=O)CC3)CC2)C1 (stereo not given)	1.1
CC(=O)N1CCc2c(c(N3CCCc4cc(-c5cnn(C)c5)c(C(F)F)cc43)nn2C2CCN(C(=O)CCCCNc3ccc4c(c3)C(=O)N(C3CCC(=O)NC3=O)C4=O)CC2)C1 (stereo not given)	0.4
CC(=O)N1CCc2c(c(N3CCCc4cc(-c5cnn(C)c5)c(C(F)F)cc43)nn2[C@H]2CC[C@H](CN3CCN(c4ccc5c(c4)CN(C4CCC(=O)NC4=O)C5=O)CC3)CC2)C1 (stereo not given in full)	0.1
CC(=O)N1CCc2c(c(N3CCCc4cc(-c5cnn(C)c5)c(C(F)F)cc43)nn2C2CCN(C(=O)CCNc3ccc4c(c3)C(=O)N(C3CCC(=O)NC3=O)C4=O)CC2)C1 (stereo not given)	0.9

====

System tested: Protein cereblon/CREB-binding protein (Homo sapiens, UniProt Q92793+Q96SW2)
Experimental protocol: PROTAC activity at CBP/CRBN in human VCaP cells assessed as protein degradation incubated for 4 hrs by Western blot analysis
Assay type: cell-based
Listing: DC50 of selected molecules
Outcome measure: DC50

Molecule	Endpoint result
CC(=O)N1CCc2c(c(N3CCCc4cc(-c5cnn(C)c5)c(C(F)F)cc43)nn2C2CCN(C(=O)c3ccc4c(c3)C(=O)N(C3CCC(=O)NC3=O)C4=O)CC2)C1 (stereo not drawn)	> 1000 nM
CC(=O)N1CCc2c(c(N3CCCc4cc(-c5cnn(C)c5)c(C(F)F)cc43)nn2C2CCN(C(=O)Nc3cccc4c3C(=O)N(C3CCC(=O)NC3=O)C4=O)CC2)C1 (stereo not drawn)	> 1000 nM
CC(=O)N1CCc2c(c(N3CCCc4cc(-c5cnn(C)c5)c(C(F)F)cc43)nn2C2CCN(C(=O)Nc3ccc4c(c3)C(=O)N(C3CCC(=O)NC3=O)C4=O)CC2)C1 (stereo not drawn)	< 0.2 nM

Source listed as ChEMBL document CHEMBL5518240.
